- Tested on: Escherichia coli K-12 BW25113;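 further: Wild-type cells incubated without shaking, value is the mean of two biological replicates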
- Test: relative growth (OD600 normalised to plate interquartile mean) (fraction); higher = less growth inhibition, active = 0.2 or less
- Condition Set: 50 µM; LB; incubation time: overnight (16-24 h)
About 220 (0.56%) of roughly 39,000 compounds showed activity. This excerpt belongs to a sample that is enriched for actives.
Quantity: relative growth

Compound: Cc1ccc(S(=O)(=O)N(C)C[C@H]2Oc3cc(C#Cc4ccncc4)ccc3S(=O)(=O)N([C@@H](C)CO)C[C@H]2C)cc1
Reading: 1.04 (inactive)
--
Compound: NCc1ccccc1-n1cccn1
Reading: 1 (inactive)
--
Compound: Nc1nc(/C(=N/O)C(=O)N[C@@H]2C(=O)N3C(C(=O)O)=C(/C=C4\CCN([C@@H]5CCNC5)C4=O)CS[C@H]23)ns1
Reading: 0.0367 (active)
--
Compound: C/C=C\C1=C(C(=O)O)N2C(=O)[C@H](NC(=O)[C@@H](N)c3ccc(O)cc3)[C@@H]2SC1
Reading: 0.912 (inactive)
--
Compound: C[C@H](CO)N1C[C@H](C)[C@H](CN(C)Cc2ccc3c(c2)OCO3)OCCCC[C@H](C)Oc2ccc(NS(=O)(=O)c3ccc(F)cc3)cc2C1=O
Reading: 0.995 (inactive)
--
Compound: Cl.N=C(N)n1cccn1
Reading: 0.042 (active)
--
Compound: CC=CC1=C(C(=O)O)N2C(=O)C(NC(=O)C(N)c3ccc(O)cc3)C2SC1 (centres undefined)
Reading: 1.08 (inactive)
--
Compound: C=CC1=C(C(=O)O)N2C(=O)[C@@H](NC(=O)/C(=N/O)c3csc(N)n3)[C@H]2SC1
Reading: 0.0336 (active)
--
Compound: O=C(C[C@@H]1C=C[C@H](NC(=O)c2cnccn2)[C@H](CO)O1)NCc1ccccc1F
Reading: 1.03 (inactive)
